# System: M14 melanoma
# experiment: NCI tumour cell line growth inhibition, 48 h; in the data active = GI50 below about 0.43 µM; inactive = the rest
Give one outcome, nothing more. List: 1 (active), -1 (inactive)

### Prompt Just curious, what result did Cc1ccccc1NC(=O)c1sc2nc(C)c(C(=O)/C=C/c3ccccc3)cc2c1N get here?
### Response -1

### Prompt Just curious, what result did COC12C=C/C(=C(/C(=O)OCc3ccccn3)C(=O)CCCCCCCCC3(OC)C=C/C(=C(/C(=O)OCc4ccccn4)C(=O)CCCCCCCC1)O3)O2 get here?
### Response 1

### Prompt Just curious, what result did COc1ncc(Nc2ncc([C@@H](C)N3CCN(S(C)(=O)=O)CC3)cc2-c2nc(C)nc(N)n2)cc1F get here?
### Response -1

### Prompt Just curious, what result did COc1ccc(-c2nc(-c3ccc(C)cc3)cn3ccnc23)cc1 get here?
### Response -1
